# Test system: NCI-H2405
# MEASUREMENT_PROTOCOL: relative viability (nuclei count vs DMSO), 5 days (fraction); higher = more cells survive
# PROTOCOL_CONDITIONS: first compound 4 µM
ENDPOINT: relative viability
Field format: numeric only.

Cc1sc2c(c1C)C(c1ccc(Cl)cc1)=N[C@@H](CC(=O)OC(C)(C)C)c1nnc(C)n1-2 [JQ1] + N=C(N)NC(=N)NCCc1ccccc1 [Phenformin] (partner 250 µM): 0.223
Cc1sc2c(c1C)C(c1ccc(Cl)cc1)=N[C@@H](CC(=O)OC(C)(C)C)c1nnc(C)n1-2 [JQ1] + O=C(c1cc(Cc2n[nH]c(=O)c3ccccc23)ccc1F)N1CCN(C(=O)C2CC2)CC1 [Olaparib] (partner 8 µM): 0.433

// switching to the query molecule
Ask: Value lookup for relative viability; key = Cc1sc2c(c1C)C(c1ccc(Cl)cc1)=N[C@@H](CC(=O)OC(C)(C)C)c1nnc(C)n1-2 [JQ1] + COc1cc2c(Oc3ccc(NC(=O)C4(C(=O)Nc5ccc(F)cc5)CC4)cc3F)ccnc2cc1OCCCN1CCOCC1 [Foretinib] (partner 0.25 µM)
Reply: 0.744

---

# System: NCI-H1755
# MEASUREMENT_PROTOCOL: relative viability (nuclei count vs DMSO), 5 days (fraction); higher = more cells survive
# PROTOCOL_CONDITIONS: first compound 0.8 µM
Collected relative viability values appear next to each entry.

Known results for compounds:
O=c1[nH]c2ccccc2n1C1CCN(CCCC(c2ccc(F)cc2)c2ccc(F)cc2)CC1 [Pimozide] + COc1cccc2cc(-c3nc([C@H]4CC[C@H](C(=O)O)CC4)n4ncnc(N)c34)[nH]c12 [OSI-027] (partner 0.5 µM): 0.678
O=c1[nH]c2ccccc2n1C1CCN(CCCC(c2ccc(F)cc2)c2ccc(F)cc2)CC1 [Pimozide] + O=C(CCCCCCC(=O)Nc1ccccc1)NO [Vorinostat] (partner 1 µM): 0.721
O=c1[nH]c2ccccc2n1C1CCN(CCCC(c2ccc(F)cc2)c2ccc(F)cc2)CC1 [Pimozide] + COc1cc2c(Oc3ccc(NC(=O)C4(C(=O)Nc5ccc(F)cc5)CC4)cc3F)ccnc2cc1OCCCN1CCOCC1 [Foretinib] (partner 0.25 µM): 0.874

// switching to the query compound
Ask: Value lookup for relative viability; key = O=c1[nH]c2ccccc2n1C1CCN(CCCC(c2ccc(F)cc2)c2ccc(F)cc2)CC1 [Pimozide] + CS(=O)(=O)CCNCc1ccc(-c2ccc3ncnc(Nc4ccc(OCc5cccc(F)c5)c(Cl)c4)c3c2)o1 [Lapatinib] (partner 2 µM)
Reply: 0.951

---

# Test system: HCC-366
# MEASUREMENT_PROTOCOL: relative viability (nuclei count vs DMSO), 5 days (fraction); higher = more cells survive
# PROTOCOL_CONDITIONS: first compound 0.01581 µM
ENDPOINT: relative viability
Field format: numeric only.

COc1cc2nccc(Oc3ccc(NC(=O)Nc4cc(C)on4)c(Cl)c3)c2cc1OC [Tivozanib] + O=C(CCCCCCC(=O)Nc1ccccc1)NO [Vorinostat] (partner 1 µM): 0.323

// switching to the query compound
Ask: Value lookup for relative viability; key = Nc1ccn([C@@H]2O[C@H](CO)[C@@H](O)[C@@H]2O)c(=O)n1 [Cytarabine] + Cc1cc(Nc2cc(N3CCN(C)CC3)nc(Sc3ccc(NC(=O)C4CC4)cc3)n2)n[nH]1 [Tozasertib] (partner 0.1 µM)
Reply: 0.119

Reference source: the supplement of paper PMC10307832
